List of 5 uM Avg Cell # Score values.
tested on: RAW 264.7 macrophages; test: SAFIRE macrophage assay: host toxicity (adherent macrophage count, morphology); type: cell-based; conditions: 5 uM
measured.metric: 5 uM Avg Cell # Score

compound	reading
Cc1cccc(OCC(O)CN2CCC(Nc3nccc(C(F)(F)F)n3)CC2)c1 (stereo not drawn) [CU108]	94
COc1ccccc1OCC(O)CN1CCC(Nc2nccc(C(F)(F)F)n2)C1 (stereo not drawn) [CU095]	88
OC(CNC1CCNCC1)COc1ccc(Cl)c(Cl)c1 (stereo not drawn) [CU174]	98
OC(COc1ccc(Cl)c(Cl)c1)CN1Cc2ccccc2C1 (stereo not drawn) [CU136]	83
CC(C)N(CCNc1nccc(C(F)(F)F)n1)CC(O)COc1ccc(Cl)c(Cl)c1 (stereo not drawn) [CU072]	62
OC(COc1ccccc1)CN1CCC(Nc2nccc(C(F)(F)F)n2)C1 (stereo not drawn) [CU083]	89
CO[C@@H]1CCN(CC(O)COc2ccc(Cl)c(Cl)c2)C1 (stereo partly drawn) [CU127]	92
Cc1ccc(Sc2cccc3nc(N)nc(N)c23)cc1 [EPM43]	93
N#Cc1ccc(OCC(O)CN2CCC(Nc3ncccn3)CC2)cc1 (stereo not drawn) [CU050]	102
OC(COc1ccc(Cl)c(Cl)c1)CN1CCC2(CCO2)C1 (stereo not drawn) [CU228]	111
N[C@H]1CC[C@@H](NCC(O)COc2cc(Cl)cc(Cl)c2)CC1 (stereo partly drawn) [CU216]	102
CCOC(=O)c1cccc(OCC(O)CN2CCC(N)C2)c1 (stereo not drawn) [CU168]	101
O=C(O)c1cn(C2CC2)c2cc(N3CCN(CC(O)COc4ccc(Cl)c(Cl)c4)CC3)c(F)cc2c1=O (stereo not drawn) [CU196]	103
OC(COc1ccc(Cl)cc1)CN1CCC(Nc2nccs2)CC1 (stereo not drawn) [CU053]	127
NC1CCN(CC(O)COc2cc(Cl)cc(Cl)c2)CC1 (stereo not drawn) [CU191]	100
OC(COc1ccc(Cl)cc1Cl)CN1CCC(NC2CC2)C1 (stereo not drawn) [CU121]	89
OC(CNC1CCNCC1)COc1cc(Cl)cc(Cl)c1 (stereo not drawn) [CU202]	100
OC(COc1ccccc1F)CN1CCC(Nc2nccc(C(F)(F)F)n2)C1 (stereo not drawn) [CU139]	95
Cc1cccc(OCC(O)CN2CCC(Nc3nccc(C(F)(F)F)n3)C2)c1 (stereo not drawn) [CU114]	99
OC(COc1ccc(Cl)c(Cl)c1)CN1CCC(n2ccnc2)CC1 (stereo not drawn) [CU179]	98
OC(COc1ccc(Cl)cc1Cl)CN1CCC(Nc2nccc(C(F)(F)F)n2)CC1 (stereo not drawn) [CU038]	85

---

List of 25 uM Avg Cell # Score values.
tested on: RAW 264.7 macrophages; assay: SAFIRE macrophage assay: host toxicity (adherent macrophage count, morphology); assay type: cell-based; conditions: 25 uM

molecule	25 uM Avg Cell # Score
CCOC(=O)c1cccc(OCC(O)CN2CCC(Nc3nccc(C(F)(F)F)n3)CC2)c1 (stereo not drawn)	61
COc1ccc(OCC(O)CN2CCC(N)C2)cc1 (stereo not drawn)	142
OC(COc1ccc(Cl)c(Cl)c1)CN1CCn2cnnc2C1 (stereo not drawn)	124
O=C1CCCN1C1CCN(CC(O)COc2ccc(Cl)c(Cl)c2)CC1 (stereo not drawn)	99
NC1CCN(CC(O)COc2cccc(Cl)c2)CC1 (stereo not drawn)	111
OC(COc1cccc2ccccc12)CN1CCC(Nc2nccc(C(F)(F)F)n2)CC1 (stereo not drawn)	89
CCN(CC(O)COc1ccc(Cl)c(Cl)c1)CC1CCOC1 (stereo not drawn)	84
O=C(NC1CCN(CC(O)COc2ccc(Cl)c(Cl)c2)C1)c1ccccc1 (stereo not drawn)	49
OC(COc1ccccc1F)CN1CCC(Nc2nccc(C(F)(F)F)n2)C1 (stereo not drawn)	73
Cc1ccc(Cl)c(OCC(O)CN2CCC(Nc3nccc(C(F)(F)F)n3)CC2)c1 (stereo not drawn)	39
CN1CCN(CC(O)COc2ccc(Cl)c(Cl)c2)CC1=O (stereo not drawn)	105
OC(COc1ccc(F)cc1F)CN1CCC(Nc2nccc(C(F)(F)F)n2)C1 (stereo not drawn)	88
OC(COc1ccc(Cl)c(Cl)c1)CN1CCC(N2CCOCC2)C1 (stereo not drawn)	146
COCC1CCCN1CC(O)COc1ccc(Cl)c(Cl)c1 (stereo not drawn)	85
CNC(=O)C1CCN(CC(O)COc2ccc(Cl)c(Cl)c2)CC1 (stereo not drawn)	89
OC(COc1ccc(F)c(F)c1)CN1CCC(Nc2ncccn2)CC1 (stereo not drawn)	107
COC(=O)c1ccc(OCC(O)CN2CCC(Nc3nccc(C(F)(F)F)n3)C2)cc1 (stereo not drawn)	95
OC(COc1ccc(F)cc1F)CN1CCC(Nc2ncccn2)CC1 (stereo not drawn)	159
OC(COc1ccc(Cl)cc1Br)CN1CCC(Nc2nccc(C(F)(F)F)n2)CC1 (stereo not drawn)	46
OC(COc1ccc(Cl)c(Cl)c1)CN1CCN(C2COC2)CC1 (stereo not drawn)	101
OC(COc1ccc(Cl)c(Cl)c1)CN1CCC(Nc2ncccn2)CC1 (stereo not drawn)	90

---

Tested on: S. Typhimurium SL1344 (sifB::gfp) in RAW 264.7 macrophages
Experiment: SAFIRE macrophage assay: intracellular bacterial load (GFP signal within macrophages)
Format: cell-based, Salmonella enterica serotype Typhimurium
Details: 25 uM; 'Toxic' given instead of a score
Description: In SAFIRE, we used MATLAB software to count the number of macrophages that remain adherent and retain the red fluorescence of MitoTracker, an indicator of voltage across the mitochondrial inner membrane. […] Non-toxic analogs that reduced bacterial load by at least 60% at 5 µM and 25 µM in SAFIRE, as compared with DMSO, progressed and were evaluated in SAFIRE across eight or more concentrations, ranging from 0.001 µM to 50 µM (n = 2). […]

molecule	25 uM Avg Antibacterial Score
NC(=O)[C@H]1CC[C@@H](NCC(O)COc2ccc(Cl)c(Cl)c2)C1 (stereo partly shown)	100
OC(COc1ccc(Cl)c(Cl)c1)CN1CCC(N2CCOCC2)C1 (stereo not shown)	63
CC(=O)N(C)C1CCN(CC(O)COc2ccc(Cl)c(Cl)c2)CC1 (stereo not shown)	90
Cc1cccc(OCC(O)CN2CCC(Nc3nccc(C(F)(F)F)n3)C2)c1 (stereo not shown)	5.57
CC(=O)Nc1cccc(OCC(O)CN2CCC(Nc3nccc(C(F)(F)F)n3)C2)c1 (stereo not shown)	110
OC(COc1ccc(Cl)c(Cl)c1)CN1CC2CCC1CO2 (stereo not shown)	69
CN(CC(O)COc1ccc(Cl)c(Cl)c1)C1CCNC1 (stereo not shown)	55
OC(COc1ccc(Cl)cc1Cl)CN1CCC(NC2CC2)C1 (stereo not shown)	11
NC1CCN(CC(O)COc2ccccc2Cl)CC1 (stereo not shown)	49
COc1ccc(OCC(O)CN2CCC(Nc3nccc(C(F)(F)F)n3)C2)cc1 (stereo not shown)	29
O=C1CCCN1C1CCN(CC(O)COc2ccc(Cl)c(Cl)c2)CC1 (stereo not shown)	83
OC(CNC1CCNCC1)COc1ccc(Cl)cc1 (stereo not shown)	34
CCOC(=O)c1cccc(OCC(O)CN2CCC(N)C2)c1 (stereo not shown)	55
OC(COc1ccc(Cl)c(Cl)c1)CN1CC2CC(C1)O2 (stereo not shown)	103
COc1ccc(OCC(O)CN2CCC(Nc3nccs3)CC2)cc1 (stereo not shown)	74
OC(COc1ccc(Cl)c(Cl)c1)CN1CCC(F)C1 (stereo not shown)	73
OC(COc1ccc(Cl)cc1)CN1CCC(Nc2ncccn2)CC1 (stereo not shown)	36
NCC1CCN(CC(O)COc2ccc(Cl)c(Cl)c2)C1 (stereo not shown)	12
NC(=O)C1CCN(CC(O)COc2ccc(Cl)c(Cl)c2)C1 (stereo not shown)	90
N[C@H]1CC[C@H](N2CC(COc3cc(Cl)cc(Cl)c3)OC2=O)CC1 (stereo partly shown)	22
NC1CCN(C[C@H](O)COc2ccc(Cl)c(Cl)c2)C1 (stereo partly shown)	35
O=C1CN(CC(O)COc2ccc(Cl)c(Cl)c2)CCN1 (stereo not shown)	102
OC(COc1ccc(Cl)cc1Cl)CN1CCC(Nc2ncccn2)CC1 (stereo not shown)	26
OC(COc1ccc(Cl)c(Cl)c1)CN1CCC(Oc2ncccn2)CC1 (stereo not shown)	61
NC1CCN(CC(O)COc2ccc(Cl)cc2)C1 (stereo not shown)	32
OC(COc1ccc(Cl)c(Cl)c1)CN1CCC2(CCO2)C1 (stereo not shown)	58
OC(COc1ccccc1F)CN1CCC(Nc2nccc(C(F)(F)F)n2)C1 (stereo not shown)	28
N[C@H]1CC[C@@H](N2CC(COc3cc(Cl)cc(Cl)c3)OC2=O)CC1 (stereo partly shown)	15
NC1CCN(CC(O)COc2ccc(F)c(F)c2)C1 (stereo not shown)	57
N=C(N)NC1CCN(CC(O)COc2ccc(Cl)c(Cl)c2)C1 (stereo not shown)	87
CC(=O)NC1CCN(CC(O)COc2ccc(Cl)c(Cl)c2)C1 (stereo not shown)	72
NC1CCN(CC(O)COc2ccc(Cl)c(Cl)c2)C1 (stereo not shown)	21

Entry source: paper PMC10746280
